- System: LD1 and LD5
- Method Summary: Screening of amphiphiles for ability to discriminate between LD1 and LD5
- Measurement Parameters: range of amphiphile concentrations; relative activity vs buffer
Metric Name: Effectiveness (LDH isoenzyme inhibition specificity, LD1 vs LD5)
Answers are plain numbers.

| Molecule | Value |
| --- | --- |
| CCCCCCCC/C=C\CCCCCCCC(=O)N(C)CCS(=O)(=O)O [Sodium N-methyl-N-oleoyl taurate] | 0 |
| C[C@H](CCC(=O)O)[C@H]1CC[C@H]2[C@@H]3C(=O)C[C@@H]4CC(=O)CC[C@]4(C)[C@H]3CC(=O)[C@]12C [Sodium dehydrocholate] | 0 |

Problem: Entry CCCCCCCCCCCCCCCCCC(=O)[O-].[Na+] [Sodium stearate] : reported Effectiveness (LDH isoenzyme inhibition specificity, LD1 vs LD5) = ?
Solution: 0

---

- Test system: LD1 and LD5
- Method Summary: Screening of amphiphiles for ability to discriminate between LD1 and LD5
- Measurement Parameters: range of amphiphile concentrations; relative activity vs buffer
Metric Name: Effectiveness (LDH isoenzyme inhibition specificity, LD1 vs LD5)

| Compound | Tested On | Value |
| --- | --- | --- |
| CCCCCCCCC[N+](C)(C)C [Nonatrimethylammonium bromide] | LD1 and LD5 | - |
| CCCCCCCCCCCCCCCC(=O)NCCC[N+](C)(C)CCO.[Cl-] | LD1 and LD5 | ++ |
| CCCCCCCCCCCCCCCCCCNC(=O)CC(C(=O)O)S(=O)(=O)O (stereo not drawn) [Disodium N-octadecylsulfosuccinamate] | LD1 and LD5 | ++ |
